Test: yeast display, Sf9 membrane polyspecificity reagent, FACS + sequencing; frameworks hold sequencing errors

Residue Codes | polyreactivity (PSR sort gate)
QVQLLESGGGLVQAGGSLRLSCKARGSILGDRMSWYRQAPVKEHELVATIYDGGITYYADSMKGRFTISRDNAKNTVYLQMNRLRPEDTAVYYCGASFEGYRYHVYCGQGTQVTVSS | low polyreactivity
QVQLVESGGGLVQAGGSLRLSCAASGSTFSTYAMGWYRQAPGKERELVARITRSDTGTYYADSVKGRFTISRDNAKNTVYLQMNSLKPEDTAVYYCAADGWYDDSGWYYGYDYWGQGTQVTVSS | low polyreactivity
QVQLVESGGGLVQAGGSLRLSCAASGLIFWAYAMGWYRQAPGKERELVAAINSGGRTYYADSVKGRFTISRDNAKNTVYLQMNSLKPEDTAVYYCAAAGVYSSDYWGQGTQVTVSS | low polyreactivity
QVQLVESGGGLVQAGGSLRLSCAASGSTFTPNAMGWYRQAPGKERELVAAINWSDSSTYYADSVKGRFTISRDNAKNTVYLQMNSLKPEDTAVYFCAAAAQYGQLQVPVYYWGQGTQVTVSS | low polyreactivity

From: the nanobody polyreactivity screen of Harvey et al. (2022)
